Provide the reported inhibition of each item.
# target_of_assay: Muscarinic acetylcholine receptor M4 (Homo sapiens)
# measurement_context: Compound concentration 10 µM
# Description: PDSP Primary Binding target: CHRM4 - Compounds are tested at 10 uM concentration, plate are incubated at room temperature in the dark for 90 minutes. Reaction are stopped by vacuum filtration onto 0.3% polyethyleneimine soaked filter mats using Filtermate harvester. Scintilation cocktail is then melted onto microwave-dried filters on a hot plate and the radio activity is counted in Microbia counter.
Response body: numeric value in %, unit text excluded.

[ask] Look up and report measured inhibition (Muscarinic acetylcholine receptor M4 (Homo sapiens)) for the following molecule: CN1CCC(C(=O)c2cccc(NC(=O)c3c(F)cc(F)cc3F)n2)CC1
[reply] 27

[ask] Identify measured inhibition obtained with Muscarinic acetylcholine receptor M4 (Homo sapiens) for Cc1ccc2c(c1)c1c(n2CCc2ccc(C)nc2)CCN(C)C1 .
[reply] 5.78

[ask] For Muscarinic acetylcholine receptor M4 (Homo sapiens), give the measured inhibition of the entry O=c1ccc2ccc(OCCCCN3CCN(c4cccc5sccc45)CC3)cc2[nH]1
[reply] 30.5

[ask] State recorded inhibition with Muscarinic acetylcholine receptor M4 (Homo sapiens), entry NCCc1c[nH]c2ccc(C(N)=O)cc12 , no comment.
[reply] -6.09

[ask] State inhibition (Muscarinic acetylcholine receptor M4 (Homo sapiens)) of C[C@H](Cc1cc2c(c(C(N)=O)c1)N(CCCO)CC2)NCCOc1ccccc1OCC(F)(F)F .
[reply] -8.65

[ask] Please respond with reported inhibition (system Muscarinic acetylcholine receptor M4 (Homo sapiens)) for COc1cccc(-c2c(C)n(Cc3c(F)cccc3C(F)(F)F)c(=O)n(C[C@H](NCCCC(=O)O)c3ccccc3)c2=O)c1F .
[reply] 4.32

[ask] Write down the reported inhibition (system: Muscarinic acetylcholine receptor M4 (Homo sapiens)) of NCCc1cn(S(=O)(=O)c2c(Cl)nc3sccn23)c2ccccc12
[reply] 16.1

[ask] Report inhibition under test system Muscarinic acetylcholine receptor M4 (Homo sapiens) for CCC[C@H](Oc1cc(C)c(-n2cc(C(F)(F)F)cn2)c(C)c1)c1ccc(C(=O)NCCC(=O)O)cc1 .
[reply] 3.44

[ask] Provide measured inhibition on Muscarinic acetylcholine receptor M4 (Homo sapiens) for CN(C)C(=O)N[C@H]1CC[C@H](CCN2CCN(c3cccc(Cl)c3Cl)CC2)CC1 please.
[reply] 64

[ask] State recorded inhibition with Muscarinic acetylcholine receptor M4 (Homo sapiens), entry CC(C)(C(=O)O)c1ccc(C(O)CCCN2CCC(C(O)(c3ccccc3)c3ccccc3)CC2)cc1 (stereo not given) , no comment.
[reply] -3.2

[ask] Provide measured inhibition on Muscarinic acetylcholine receptor M4 (Homo sapiens) for Clc1ccc(CCCOCCCN2CCCCC2)cc1 please.
[reply] 76.8

[ask] Report value only: inhibition, Muscarinic acetylcholine receptor M4 (Homo sapiens), Cc1cc([C@@H](C)Nc2cccc(-c3cc(C)c(C(=O)N[C@@H](C)C(=O)O)c(C)c3)c2)ccc1Cl
[reply] 7.41

[ask] Please tell me the measured inhibition for CC(C)NCC(O)COc1cccc2[nH]ccc12 (stereo not given) ; system: Muscarinic acetylcholine receptor M4 (Homo sapiens).
[reply] 4.2

[ask] Send back Muscarinic acetylcholine receptor M4 (Homo sapiens) inhibition of CNc1nc(NCc2ccc(NS(C)(=O)=O)cc2Cl)cc(-c2ccccn2)n1 only.
[reply] 9.44

[ask] // fetch inhibition; item: COc1ccc(S(=O)(=O)c2cc(OC)ccc2S(=O)(=O)c2ccc([C@H](C)NS(C)(=O)=O)cc2)cc1 ; system: Muscarinic acetylcholine receptor M4 (Homo sapiens)
[reply] -3.37

[ask] Print Muscarinic acetylcholine receptor M4 (Homo sapiens) inhibition for CN1C2CCC1CC(OC(c1ccc(F)cc1)c1ccc(F)cc1)C2 (stereo not given) .
[reply] 95.6

[ask] Please report the measured inhibition for Cc1nc(C(=O)N2CCC[C@H]2Cc2nnc(-c3ccccc3)o2)c(-c2ccccc2F)s1 tested on Muscarinic acetylcholine receptor M4 (Homo sapiens).
[reply] 39.1

[ask] Supply inhibition measured with Muscarinic acetylcholine receptor M4 (Homo sapiens) for O=C(Cc1ccccc1)Nc1nc2ccc(Cl)cc2c2nc(-c3ccco3)nn12 .
[reply] -5.46

[ask] Give inhibition only, for COc1ccccc1N1CCN(CCCCNC(=O)c2ccc3ccccc3c2)CC1 , using Muscarinic acetylcholine receptor M4 (Homo sapiens) data.
[reply] 0.77

[ask] // fetch inhibition for Cc1cn2cc(CC(=O)N3CCC4(CC3)CN(Cc3ccc(-n5nccn5)cc3Cl)C4)nc2s1 ; system: Muscarinic acetylcholine receptor M4 (Homo sapiens)
[reply] 87.5

---

# target_of_assay: Muscarinic acetylcholine receptor M5 (Homo sapiens) (UniProt P08912)
# Sequence (P08912 whole entry): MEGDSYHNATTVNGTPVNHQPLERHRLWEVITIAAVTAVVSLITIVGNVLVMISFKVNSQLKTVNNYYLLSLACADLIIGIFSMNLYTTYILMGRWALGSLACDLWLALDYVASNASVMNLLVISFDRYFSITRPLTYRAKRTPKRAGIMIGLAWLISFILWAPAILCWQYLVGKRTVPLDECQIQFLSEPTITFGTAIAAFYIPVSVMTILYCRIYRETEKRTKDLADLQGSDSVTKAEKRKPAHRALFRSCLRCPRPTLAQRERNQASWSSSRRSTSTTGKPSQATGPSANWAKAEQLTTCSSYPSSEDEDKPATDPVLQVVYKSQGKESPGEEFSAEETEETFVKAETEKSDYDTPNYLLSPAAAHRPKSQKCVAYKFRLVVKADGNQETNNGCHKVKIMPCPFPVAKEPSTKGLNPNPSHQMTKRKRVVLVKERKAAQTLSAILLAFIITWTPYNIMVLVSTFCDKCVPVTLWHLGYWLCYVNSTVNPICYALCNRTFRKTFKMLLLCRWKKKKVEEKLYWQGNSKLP
# measurement_context: Compound concentration 10 µM
# Description: PDSP Primary Binding target: CHRM5 - Compounds are tested at 10 uM concentration, plate are incubated at room temperature in the dark for 90 minutes. Reaction are stopped by vacuum filtration onto 0.3% polyethyleneimine soaked filter mats using Filtermate harvester. Scintilation cocktail is then melted onto microwave-dried filters on a hot plate and the radio activity is counted in Microbia counter.
assay_metric: inhibition (%)
# value in %; strip the unit string

[ask] Provide measured inhibition value, entry: O=c1ccc2ccc(OCCCCN3CCN(c4cccc5sccc45)CC3)cc2[nH]1
[reply] 38.2

[ask] Annotate the molecule CN1CC(=O)N=C1NC(=O)Nc1cccc(Cl)c1 with its measured inhibition.
[reply] 6.05

[ask] Provide only the value of recorded inhibition for CC(C)(C)NC[C@H](O)COc1nsnc1N1CCOCC1
[reply] 2.12

[ask] Report inhibition for C[C@]1(C(=O)N(CCCC(=O)O)Cc2cccc(Cl)c2)CCN1C(=O)c1csc2ccccc12
[reply] -2.06

[ask] Return value of inhibition for input CCCCN(CCCC)C(=O)CN1C[C@@H](c2ccc3c(c2)OCO3)[C@H](C(=O)O)[C@H]1c1ccc(OC)cc1 , no commentary.
[reply] 30.2

---

# target_of_assay: UniProt:Q01959
# Sequence (Q01959 whole entry): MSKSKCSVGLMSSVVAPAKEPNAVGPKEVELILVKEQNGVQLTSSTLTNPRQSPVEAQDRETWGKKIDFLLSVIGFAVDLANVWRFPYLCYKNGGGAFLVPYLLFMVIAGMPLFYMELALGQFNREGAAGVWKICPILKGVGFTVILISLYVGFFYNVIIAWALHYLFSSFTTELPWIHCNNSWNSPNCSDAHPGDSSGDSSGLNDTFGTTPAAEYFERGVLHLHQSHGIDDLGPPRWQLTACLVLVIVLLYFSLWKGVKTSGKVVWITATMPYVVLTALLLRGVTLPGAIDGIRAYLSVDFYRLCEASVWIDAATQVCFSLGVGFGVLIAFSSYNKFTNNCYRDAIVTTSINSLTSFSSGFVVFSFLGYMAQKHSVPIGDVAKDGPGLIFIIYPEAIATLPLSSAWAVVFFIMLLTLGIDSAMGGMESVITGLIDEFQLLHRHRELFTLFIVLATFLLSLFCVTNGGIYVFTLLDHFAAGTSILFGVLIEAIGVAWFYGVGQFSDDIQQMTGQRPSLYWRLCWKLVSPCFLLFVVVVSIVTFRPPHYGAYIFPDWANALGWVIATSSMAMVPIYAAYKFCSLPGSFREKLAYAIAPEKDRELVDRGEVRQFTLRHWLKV
# measurement_context: Compound concentration 10 µM
# Description: PDSP Primary Binding target: SLC6A3 - Compounds are tested at 10 uM concentration, plate are incubated at room temperature in the dark for 90 minutes. Reaction are stopped by vacuum filtration onto 0.3% polyethyleneimine soaked filter mats using Filtermate harvester. Scintilation cocktail is then melted onto microwave-dried filters on a hot plate and the radio activity is counted in Microbia counter.
Please respond with reported inhibition for every item in the list.
Please reply with the bare figure in % and do not write the unit itself.

[ask] Output reported inhibition of the molecule O=C(O)c1n[nH]c2c1C[C@H]1C[C@@H]21 on UniProt:Q01959.
[reply] 1.37

[ask] # return inhibition for O=C(O)C1CN(Cc2ccc(-c3nc4cc(Cc5ccccc5F)ccc4s3)c(F)c2)C1 , test system: UniProt:Q01959
[reply] 30.2

[ask] // fetch inhibition for NC[C@H](O)c1ccc(O)c(O)c1 ; system: UniProt:Q01959
[reply] 21.8

[ask] Tell me inhibition of COc1ccnc(N2CCC3(CCCN(Cc4c[nH]c5ccccc45)C3=O)CC2)n1 when tested on UniProt:Q01959.
[reply] 44.7

[ask] State, for UniProt:Q01959, measured inhibition of the molecule listed here: CCc1cc2c(c(CC)n1)CCC(=O)N2Cc1ccc(-c2ccccc2-c2nnn[nH]2)cc1
[reply] 8.77

[ask] Jot down inhibition (UniProt:Q01959) of C[C@]1(C(=O)N(CCCC(=O)O)Cc2cccc(Cl)c2)CCN1C(=O)c1csc2ccccc12 .
[reply] 13

[ask] Report inhibition under test system UniProt:Q01959 for CC(C)NCC(O)COc1cccc2[nH]ccc12 (stereo unspecified) .
[reply] 21.3

[ask] Report the value of inhibition obtained on UniProt:Q01959 for CC(C)(C)NC[C@H](O)COc1nsnc1N1CCOCC1 .
[reply] 31.4

[ask] Give inhibition only, for O=C(Nc1ccc(Cl)cc1)Nc1cccc(-c2cccc(N3CCCC3)n2)c1 , using UniProt:Q01959 data.
[reply] 18.3

[ask] Fill: inhibition (UniProt:Q01959) for this molecule Oc1ccc2c3c1O[C@H]1c4[nH]c5c(c4C[C@@]4(O)[C@@H](C2)N(CC2CC2)CC[C@]314)C[C@@]1(O)[C@H]2Cc3ccc(O)c4c3[C@@]1(CCN2CC1CC1)[C@H]5O4
[reply] -4.44

[ask] For UniProt:Q01959, give inhibition of the listed molecule: CC1CCN(CC[C@H]2CCCN2S(=O)(=O)c2cccc(O)c2)CC1
[reply] 46.1

[ask] Provide measured inhibition on UniProt:Q01959 for FC(F)(F)c1cccc(-c2noc(-c3cc(-c4ccccc4)c(C(F)(F)F)s3)n2)c1 please.
[reply] 17.8

[ask] Using UniProt:Q01959 as the test system, report measured inhibition of O=C(Cc1ccc(Cl)c(Cl)c1)N1CCCC[C@H]1CN1CCCC1 .
[reply] 52.7

[ask] State inhibition (UniProt:Q01959) of Cc1nc(C(=O)N2CCC[C@H]2Cc2nnc(-c3ccccc3)o2)c(-c2ccccc2F)s1 .
[reply] 26.1

[ask] Report the value of inhibition obtained on UniProt:Q01959 for C[C@@H](N)Cc1c[nH]cn1 .
[reply] 3.36

[ask] Give inhibition only, for NCCc1c[nH]c2ccc(C(N)=O)cc12 , using UniProt:Q01959 data.
[reply] 44.6

[ask] Quote inhibition with test system UniProt:Q01959 for CN(C)C(=O)C(CCN1CCC(O)(c2ccc(Cl)cc2)CC1)(c1ccccc1)c1ccccc1
[reply] 64.3

[ask] Enter inhibition (test system UniProt:Q01959) for COc1ccc(/C=C/CCCCOc2ccc(C(=O)c3cccc(C(=O)O)c3)cc2CCC(=O)O)cc1
[reply] 23.6

[ask] With UniProt:Q01959 as the test system, provide measured inhibition for this molecule: O=C(O)Cn1c(C(=O)Nc2nc(-c3ccccc3Cl)cs2)cc2ccccc21
[reply] 47.6

[ask] State the measured inhibition (UniProt:Q01959) of CN(C(=O)Cc1ccc(Cl)c(Cl)c1)C(CN1CCCC1)c1cccc(OCC(=O)O)c1 (stereo unspecified)
[reply] 26.4

[ask] Name the recorded inhibition of Cc1cc(NC(=O)Nc2ccc(N(C)C)cc2)c2cc(F)cc(F)c2n1 , assay system UniProt:Q01959.
[reply] 22.8
